- MEASURED TARGET: T1, HTRA3, P83110
- T1 sequence (P83110 354-453, limits assumed, looked up): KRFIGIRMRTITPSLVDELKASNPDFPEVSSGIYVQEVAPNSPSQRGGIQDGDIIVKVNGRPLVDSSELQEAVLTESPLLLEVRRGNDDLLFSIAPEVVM
- ASSAY PROTOCOL: holdup assay
- Parameters: key: below the threshold = too weak to quantify, mostly under pKd 3.1 to 4
- CONDITION NOTES: plain residues with an end cap or a label only (N-terminal biotin on a linker: ado-ado)
ATTRIBUTE MEASURED: pKd

1. IDESKKEWLI [CNTNAP2, Q9UHC6] :: 4.15
2. DFLSTFHIRI [CIB2, O75838] :: below the threshold
3. TGLWKHETTV [ADGRA3, Q8IWK6] :: below the threshold
4. TNSRHGETTV [FZD2, Q14332] :: below the threshold
5. QLSFNTDTLC [ABCA2, Q9BZC7] :: 4.26
6. SVTSERETNI [SLC16A7, O60669] :: below the threshold
7. VKRNSKETVV [MARCHF3, Q86UD3] :: below the threshold

Query binder follows.
get_value(item= PYPTADHMLA [JUP, P14923] , readout=pKd) returns below the threshold
